- System under test: RSV F on RSV subtype B virus (mKate-RSV B 18537) (respiratory syncytial virus B 18537, UniProt P13843 26-574)
- Sequence (P13843 26-574): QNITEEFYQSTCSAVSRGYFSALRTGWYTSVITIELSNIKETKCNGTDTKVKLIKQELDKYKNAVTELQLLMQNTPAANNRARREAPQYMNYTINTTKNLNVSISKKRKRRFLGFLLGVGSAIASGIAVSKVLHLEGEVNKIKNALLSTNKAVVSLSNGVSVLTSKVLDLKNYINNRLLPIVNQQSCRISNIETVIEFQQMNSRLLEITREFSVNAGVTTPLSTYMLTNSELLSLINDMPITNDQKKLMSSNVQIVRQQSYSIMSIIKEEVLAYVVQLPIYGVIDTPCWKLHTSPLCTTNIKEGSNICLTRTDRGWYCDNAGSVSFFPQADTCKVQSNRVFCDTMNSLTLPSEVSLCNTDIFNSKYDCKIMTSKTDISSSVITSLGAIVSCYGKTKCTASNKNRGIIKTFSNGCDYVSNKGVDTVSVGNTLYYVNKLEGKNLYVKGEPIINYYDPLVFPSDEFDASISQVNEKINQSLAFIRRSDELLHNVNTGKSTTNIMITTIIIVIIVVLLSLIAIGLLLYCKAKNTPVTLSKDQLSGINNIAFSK
- Assay: cell-based or functional assay
Value type: Neut IC50 subtype B (µg/mL)
Give bare numbers, in µg/mL.

List the reported Neut IC50 subtype B of each binder below.
1. ADI-24839 (antibody, V domains shown, full-length IgG) VH: EVQLVESGGGLVKPGGSLRLSCAASGFTFSSYSMNWVRQAPGKGLEWVSSISSSSSYIYYADSVKGRFTISRDNAKNSLYLQMNSLRAEDTAVYYCARVLVATAYGNAFDIWGQGTMVTVSS VL: QSVLTQPPSVSGAPGQRVTISCTGSSSNIGAGYDVHWYQQLPGTAPKLLIYGNSNRPSGVPDRFSGSKSGTSASLAITGLQAEDEADYYCQSYDSSLTVVFGGGTKLTVL
2. ADI-25479 (antibody, V domains shown, full-length IgG) VH: EVQLVESGGGLVKPGGSLRLSCAASGFTFSSYSMNWVRQAPGKGLEWVSSISSSSSYIYYADSVKGRFTISRDNAKNSLYLQMNSLRAEDTAVYYCARGGYSYGAYYYYYMDVWGKGTTVTVSS VL: QSVLTQPPSVSGAPGQRVTISCTGSSSNIGAGYDVHWYQQLPGTAPKLLIYGNSNRPSGVPDRFSGSKSGTSASLAITGLQAEDEADYYCQSYDSSLSGYWVFGGGTKLTVL
3. ADI-14344 (antibody, V domains shown, full-length IgG; also called Ab 12) VH: QVQLVQSGGGLVQPGGSLRLSCAASGFTFRTYALSWVRQAPGKGLEWVSSILGSGGSTYYADSVKGRFTISRDNSKNTLYLQLNSLRAEDTAVYFCAKLAVAGLLHHYYGLDVWGQGTTVTVSS VL: SYELTQPPSVSVSPGQTASITCSGDKLENKYACWYQQKPGQSPVLLIYQDTKRPSGIPERFSGSNSGTTATLTISGTQALDEADYYCQAWDSSTASVLFGGGTQLTVL

Result:
1: 4.1; 2: 0.29; 3: 1.2
